System: MCF7 breast
Test: NCI tumour cell line growth inhibition, 48 h; in the data active = GI50 below about 0.43 µM; inactive = the rest
Form entry, call: pick from y for active, n for inactive

{"compound": "CN(C)CCNc1nc2ccccc2c2c(=O)c3cc(F)ccc3sc12", "group.label": "n"}
{"compound": "COc1cc2c3c(n(CCCN(C)CCO)c(=O)c2cc1OC)-c1cc2c(cc1C3=O)OCO2", "group.label": "n"}
{"compound": "COc1ccc2c(c1)C(C)Cc1c(ncnc1-n1cnc3ccccc31)N2C (stereo not given)", "group.label": "y"}
{"compound": "C=C1C(O)C2C(=C(C)C13CC3)C(=O)C(C)(C)C2OC (stereo not given)", "group.label": "n"}

// next entry
Enquiry: Outcome logged for CNC(C)[C@H]1CCC2C3CC=C4C(=O)[C@@H](NC(=O)C=C(C)C)CC[C@]4(C)C3CC[C@@]21C (stereo not given in full) in this assay:
Return: n

----------
System: MOLT-4 leukemia
Assay: NCI tumour cell line growth inhibition, 48 h
Entries and their TGI

{"compound": "CC(=O)NC1C(Sc2ncn(C3OC(CO)C(O)C(O)C3NC(C)=O)n2)OC(CO)C(O)C1O (stereo unspecified)", "TGI": "> 100 µM"}

Enquiry: # input compound: CN1CCc2c(sc3[nH]c(=S)[nH]c(=S)c23)C1 ; wanted: its TGI
Return: > 100 µM

Enquiry: Try COc1cc(/C=C2\CCC/C(=C\c3ccc(OCC4CO4)c(OC)c3)C2=O)ccc1OCC1CO1 (stereo unspecified) next.
Return: 34.1 µM

Enquiry: Repeat with C(=Nc1ccc2c(c1)Cc1ccccc1-2)c1ccccn1
Return: > 100 µM

Enquiry: Field entry: COc1ccc(-c2noc(N)c2-c2cc(OC)c3c(c2)OCO3)cc1
Return: > 64.1 µM

Enquiry: Further, for c1ccc2c(c1)Nc1cccc3c1c-2nc1ccccc13 ?
Return: 1.78 µM

Enquiry: Could you do the same for O=C(NNc1cnccn1)c1nc2cc(F)ccc2n2cccc12 , please?
Return: > 100 µM

Enquiry: Next compound: CS(=O)(=O)CS(=O)(=O)OCCCl
Return: 629 µM

Enquiry: For COc1cc(Nc2nc3cc(C(F)(F)F)ccc3nc2C(=O)O)cc(OC)c1OC then?
Return: > 100 µM

Enquiry: Would you kindly repeat that for CC(C)(C)OC(=O)N1C2CCCC23O[C@@H]1c1cc2c(cc1C3=O)OCO2 (stereo partly specified) ?
Return: > 100 µM

Enquiry: And what about the compound O=C1C=CC(=CC=C2C=CN(CCCCCCCCCCC(=O)NCCCCCCCCCCCC(=O)O)C=C2)C=C1 ?
Return: > 100 µM

Enquiry: // same read-out, input: Cc1ccc(NC(=O)C(=O)C2C(=O)NC(=O)NC2=O)cc1C
Return: > 100 µM

Enquiry: Also check COc1cc(-c2nnc3n2NC=C(C(=O)O)S3)cc(OC)c1OC
Return: > 100 µM

Enquiry: And then N[C@H](Cc1ccc2oc3cc(=O)c4ccccc4c-3nc2c1)C(=O)O , what is it?
Return: > 100 µM

Enquiry: Next compound: C=CCCC1(C)CCCNC1=S (stereo unspecified)
Return: > 100 µM

Enquiry: Likewise for Nc1c(S(=O)(=O)c2ccccc2)c2nc3ccccc3nc2n2c1nc1ccccc12 ?
Return: > 100 µM

Enquiry: What would you report for COc1cccc(CC(=O)N2CCN(CCCc3ccccc3)CC2)c1 ?
Return: > 100 µM

Enquiry: Please do the same for Cc1ccnc2c1C(=O)C1=C(OC(C)(C)CC1O)C2=O (stereo unspecified) as well.
Return: 26.9 µM

Enquiry: Next entry: NC(=O)CNc1ccc([As]=[As]c2ccc(NCC(N)=O)cc2)cc1 (stereo unspecified)
Return: > 100 µM

Enquiry: // next record OC(C/C=N/N=C/CC(O)(C(F)(F)Cl)C(F)(F)Cl)(C(F)(F)Cl)C(F)(F)Cl
Return: > 10 µM

Enquiry: What do you get for Cc1ccc(N2C(=O)N(c3ccc(C)cc3)C3(SC=NN3C)C2=O)cc1 (stereo unspecified) ?
Return: > 100 µM

Enquiry: Also C=CCC1(C)CCCCC1(O)CS(=O)c1ccccc1 (stereo unspecified) ?
Return: > 100 µM

Enquiry: And what about the compound S=C1NCCN1C(=S)Nc1ccccc1 ?
Return: > 100 µM

Enquiry: // repeat for COc1ccc2nc3cc(Cl)ccc3c(Sc3ccc(NC(C)=O)cc3)c2c1 and report
Return: 84.4 µM

Enquiry: Same read-out for CNCCn1c(=O)c2cc(OC)c(OC)cc2c2cnc3cc4c(cc3c21)OCO4 ?
Return: 0.0303 µM

Enquiry: Subsequent entry: COc1ccc(-c2ccc(NNC(=O)c3ccc(F)cc3)nn2)cc1OC
Return: > 100 µM
